- System: Plasmodium falciparum
- run description: Antimalarial activity against Plasmodium falciparum Dd2 assessed as parasitic growth inhibition
- Type: functional, organism-based
Decision: EC50 beneath 6 nM gives t; EC50 meeting or exceeding 6 nM gives f.

Below are worked cases with known answers.
C[C@H]1[C@H](OC(=O)CCC(=O)OCCNc2ccnc3cc(Cl)ccc23)O[C@@H]2O[C@]3(C)CC[C@H]4[C@H](C)CC[C@@H]1[C@@]24OO3 ... t
C[C@H]1[C@H](OC(=O)CCC(=O)OCCc2cn(-c3ccnc4cc(Cl)ccc34)nn2)O[C@@H]2O[C@]3(C)CC[C@H]4[C@H](C)CC[C@@H]1[C@@]24OO3 ... t

(Q) Quick check: EC50 of "CCCCc1nc(C)c2ccc(-c3cn(CCOC(=O)CCC(=O)O[C@@H]4O[C@@H]5O[C@]6(C)CC[C@H]7[C@H](C)CC[C@@H]([C@H]4C)[C@@]57OO6)nn3)cc2c1CCCC" under 6 nM?
(A) f

###

- System: Plasmodium falciparum
- run description: Antimalarial activity against mefloquine resistant Plasmodium falciparum FcB1 assessed as parasitic growth inhibition measured after 48 hrs
- Type: functional, organism-based
- reported conditions: FcB1, 48 h
reported endpoint: pIC50
One number for each entry, as −log10 of the molar value.

C[C@H]1C[C@@H]2C[C@@H]3CC[C@H]4OC(C(F)(F)F)=C(COCCOC(=O)CCC(=O)OC(c5cc(C(F)(F)F)nc6c(C(F)(F)F)cccc56)C5CCCCN5)[C@H](C1)[C@]24OO3 (some centres not stated) ... 8.62

(Q) Item CC1=C(CN2CCCCC2C(O)c2cc(C(F)(F)F)nc3c(C(F)(F)F)cccc23)[C@@H]2C[C@@H](C)C[C@@H]3C[C@]4(C)CC[C@@H](O1)[C@@]32OO4 (some centres not stated) has what recorded pIC50?
(A) 8.62

###

- Tested on: Plasmodium falciparum
- run description: Antimalarial activity against chloroquine sensitive Plasmodium falciparum 3D7 assessed as parasitic growth inhibition by SYBR Green I dye based assay
- Assay type: functional, organism-based
pIC50: −log10 of the molar value.
pIC50 vs 8: at or above is condition met, below is condition not met.

CCCCNc1c2ccc(Cl)cc2nc2ccc(OC)cc12 ... condition not met
CCCCN1C(=O)c2ccc3c4c(ccc(c24)C1=O)C(=O)C(CCNc1c2ccc(Cl)cc2nc2ccc(OC)cc12)C3=O ... condition met
CCCN1C(=O)c2ccc3c4c(ccc(c24)C1=O)C(=O)C(CNc1c2ccc(Cl)cc2nc2ccc(OC)cc12)C3=O ... condition met

Consider the record given below.
(Q) API: above_or_equal(metric=pIC50, cutoff=8) for item "COc1ccc2nc3cc(Cl)ccc3c(NCC3C(=O)c4ccc5c6c(ccc(c46)C3=O)C(=O)N(CN(C)C)C5=O)c2c1"
(A) condition met

###

- Tested on: Plasmodium falciparum
- run description: Antimalarial activity against Chloroquine sensitive Plasmodium falciparum 3D7 assessed as parasitic growth inhibition measured after 24 hrs
- Format: functional, organism-based
- reported conditions: 3D7, 24 h
reported endpoint: pEC50
Numbers only, as −log10 of the molar value.

Cc1ccc(-c2nn(-c3nc4ccccc4s3)cc2/C=N\c2cccc(Cl)c2)cc1 ... 5.71

As a next step, examine the molecule that follows.
(Q) Reported pEC50, molecule "Cc1ccc(-c2nn(-c3nc4ccccc4s3)cc2/C=N\c2ccc(Cl)cc2)cc1" : ____
(A) 5.70

###

- Test system: Plasmodium falciparum
- run description: Antimalarial activity against Plasmodium falciparum 3D7 assessed as parasitic growth inhibition
- Assay type: functional, organism-based
reported endpoint: pEC50
Answers are plain numbers, as −log10 of the molar value.

C[C@H]1[C@H](OC(=O)CCC(=O)OCCCc2cn(-c3ccnc4cc(Cl)ccc34)nn2)O[C@@H]2O[C@]3(C)CC[C@H]4[C@H](C)CC[C@@H]1[C@@]24OO3 ... 8.27
Cc1nc(-c2ccccc2)c(-c2ccccc2)c2cc(-c3cn(CCOC(=O)CCC(=O)O[C@@H]4O[C@@H]5O[C@]6(C)CC[C@H]7[C@H](C)CC[C@@H]([C@H]4C)[C@@]57OO6)nn3)ccc12 ... 8.28
C[C@H]1[C@H](OC(=O)CCC(=O)NCCNc2ccnc3cc(Cl)ccc23)O[C@@H]2O[C@]3(C)CC[C@H]4[C@H](C)CC[C@@H]1[C@@]24OO3 ... 8.57
C[C@H]1[C@@H](OCCc2cn(-c3cccc4cc(Cl)ccc34)nn2)O[C@@H]2O[C@]3(C)CC[C@H]4[C@H](C)CC[C@@H]1[C@@]24OO3 ... 8.06
C#CCCCC(C(=O)NCCOC(=O)CCC(=O)O[C@@H]1O[C@@H]2O[C@]3(C)CC[C@H]4[C@H](C)CC[C@@H]([C@H]1C)[C@@]24OO3)c1ccnc2cc(Cl)ccc12 (stereo partly specified) ... 8.22
C[C@H]1[C@H](OC(=O)CCC(=O)OCCCCc2cn(-c3ccnc4cc(Cl)ccc34)nn2)O[C@@H]2O[C@]3(C)CC[C@H]4[C@H](C)CC[C@@H]1[C@@]24OO3 ... 8.21

Quick one: give me pEC50 for each item below, same order please.
1. C[C@H]1[C@H](OC(=O)CCC(=O)OCc2cn(-c3ccnc4cc(Cl)ccc34)nn2)O[C@@H]2O[C@]3(C)CC[C@H]4[C@H](C)CC[C@@H]1[C@@]24OO3 (racemic)
2. C#CCCCN(CCNc1ccnc2cc(Cl)ccc12)C(=O)CCC(=O)O[C@@H]1O[C@@H]2O[C@]3(C)CC[C@H]4[C@H](C)CC[C@@H]([C@H]1C)[C@@]24OO3
3. C[C@H]1[C@@H](OCc2cn(-c3cccc4cc(Cl)ccc34)nn2)O[C@@H]2O[C@]3(C)CC[C@H]4[C@H](C)CC[C@@H]1[C@@]24OO3
4. C[C@H]1[C@H](OC(=O)CCC(=O)OCCc2cn(-c3ccnc4cc(Cl)ccc34)nn2)O[C@@H]2O[C@]3(C)CC[C@H]4[C@H](C)CC[C@@H]1[C@@]24OO3
5. C[C@H]1[C@H](OC(=O)CCC(=O)OCCNc2ccnc3cc(Cl)ccc23)O[C@@H]2O[C@]3(C)CC[C@H]4[C@H](C)CC[C@@H]1[C@@]24OO3

(A)
1. 8.28
2. 8.46
3. 8.05
4. 8.10
5. 8.35

###

- Test system: Plasmodium falciparum
- run description: Antimalarial activity against Plasmodium falciparum 3D7 assessed as parasitic growth inhibition
- Format: functional, organism-based
So I've got a bunch of compounds here, and I need their pEC50 values.
One number for each entry, as −log10 of the molar value.

The examples below pair each entry with its known result.
C[C@H]1[C@@H](OCCCc2cn(-c3cccc4cc(Cl)ccc34)nn2)O[C@@H]2O[C@]3(C)CC[C@H]4[C@H](C)CC[C@@H]1[C@@]24OO3 ... 8.03
CCCCc1nc(C)c2ccc(-c3cn(CCOC(=O)CCC(=O)O[C@@H]4O[C@@H]5O[C@]6(C)CC[C@H]7[C@H](C)CC[C@@H]([C@H]4C)[C@@]57OO6)nn3)cc2c1CCCC ... 8.04
C[C@H]1[C@@H](OCCCCc2cn(-c3cccc4cc(Cl)ccc34)nn2)O[C@@H]2O[C@]3(C)CC[C@H]4[C@H](C)CC[C@@H]1[C@@]24OO3 ... 8.08

Turning now to a further record.
(Q) What measured pEC50 goes with CCN(CC)CCCC(C)Nc1ccnc2cc(Cl)ccc12 (centres undefined) ?
(A) 7.90

###

- Test system: Plasmodium falciparum
- run description: Antimalarial activity against Plasmodium falciparum Dd2 assessed as parasitic growth inhibition
- Assay type: functional, organism-based
Would you mind telling me the reported pEC50 of each entry?
Numbers only, as −log10 of the molar value.

Cc1nc(-c2ccccc2)c(-c2ccccc2)c2cc(-c3cn(CCOC(=O)CCC(=O)O[C@@H]4O[C@@H]5O[C@]6(C)CC[C@H]7[C@H](C)CC[C@@H]([C@H]4C)[C@@]57OO6)nn3)ccc12 ... 8.32
CCN(CC)CCCC(C)Nc1ccnc2cc(Cl)ccc12 (stereo not given) ... 6.78
C[C@H]1[C@H](OC(=O)CCC(=O)OCCCCc2cn(-c3ccnc4cc(Cl)ccc34)nn2)O[C@@H]2O[C@]3(C)CC[C@H]4[C@H](C)CC[C@@H]1[C@@]24OO3 ... 8.36
C#CCCCN(CCNc1ccnc2cc(Cl)ccc12)C(=O)CCC(=O)O[C@@H]1O[C@@H]2O[C@]3(C)CC[C@H]4[C@H](C)CC[C@@H]([C@H]1C)[C@@]24OO3 ... 8.80

Then there is this molecule:
(Q) Sample C#CCCCC(C(=O)NCCOC(=O)CCC(=O)O[C@@H]1O[C@@H]2O[C@]3(C)CC[C@H]4[C@H](C)CC[C@@H]([C@H]1C)[C@@]24OO3)c1ccnc2cc(Cl)ccc12 (stereo not given in full) — what was its pEC50?
(A) 8.32

###

- Tested on: Plasmodium falciparum
- run description: Antimalarial activity against Plasmodium falciparum Dd2 assessed as parasitic growth inhibition
- Format: functional, organism-based
reported endpoint: EC50 (nM)
Give bare numbers, in nM.

Solved cases below.
C[C@H]1[C@H](OC(=O)CCC(=O)NCCNc2ccnc3cc(Cl)ccc23)O[C@@H]2O[C@]3(C)CC[C@H]4[C@H](C)CC[C@@H]1[C@@]24OO3 ... 1
C[C@H]1[C@H](OC(=O)CCC(=O)OCc2cn(-c3ccnc4cc(Cl)ccc34)nn2)O[C@@H]2O[C@]3(C)CC[C@H]4[C@H](C)CC[C@@H]1[C@@]24OO3 (racemic) ... 4.2
C[C@H]1[C@H](OC(=O)CCC(=O)OCCCc2cn(-c3ccnc4cc(Cl)ccc34)nn2)O[C@@H]2O[C@]3(C)CC[C@H]4[C@H](C)CC[C@@H]1[C@@]24OO3 ... 4.6
C[C@H]1[C@@H](OCCCc2cn(-c3cccc4cc(Cl)ccc34)nn2)O[C@@H]2O[C@]3(C)CC[C@H]4[C@H](C)CC[C@@H]1[C@@]24OO3 ... 5.1

Please examine the following record next.
(Q) Would you mind telling me what EC50 value was observed for "C[C@H]1[C@@H](OCCc2cn(-c3cccc4cc(Cl)ccc34)nn2)O[C@@H]2O[C@]3(C)CC[C@H]4[C@H](C)CC[C@@H]1[C@@]24OO3" ?
(A) 4.5
